Target: Env of HIV-1 strain 3016.v5.c45 (HIV-1)
Experiment: cell-based or functional assay
Recorded Metric: neutralization IC50

# example entries with known answers
γ59κ5 (antibody, V domains shown) VH: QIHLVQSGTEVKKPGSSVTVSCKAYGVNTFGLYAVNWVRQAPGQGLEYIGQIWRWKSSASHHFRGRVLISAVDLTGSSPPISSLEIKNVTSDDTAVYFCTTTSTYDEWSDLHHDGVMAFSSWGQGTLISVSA VL: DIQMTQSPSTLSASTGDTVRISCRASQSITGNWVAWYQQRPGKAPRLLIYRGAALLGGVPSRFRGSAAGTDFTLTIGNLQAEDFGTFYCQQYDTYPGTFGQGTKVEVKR : > 15 µg/mL
γ20κ19 (antibody, V domains shown) VH: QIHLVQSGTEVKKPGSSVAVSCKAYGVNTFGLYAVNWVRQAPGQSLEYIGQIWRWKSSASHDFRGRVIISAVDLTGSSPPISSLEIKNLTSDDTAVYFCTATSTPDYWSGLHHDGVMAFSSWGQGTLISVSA VL: DIQMTQSPSTLSASVGDTVRISCRASQSITGGWLAWYHQRPGKAPRLLIYRGSRLLGGVPSRFSGSAAGTGFTLTIANLQAEDFGTFYCQQYDTYPGTFGQGTKVEVKR : > 15 µg/mL

Entry γ46κ18 (antibody, V domains shown) VH: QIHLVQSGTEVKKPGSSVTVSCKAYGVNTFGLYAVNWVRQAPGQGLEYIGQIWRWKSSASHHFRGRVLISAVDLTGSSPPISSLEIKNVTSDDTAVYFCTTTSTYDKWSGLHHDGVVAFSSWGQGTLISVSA VL: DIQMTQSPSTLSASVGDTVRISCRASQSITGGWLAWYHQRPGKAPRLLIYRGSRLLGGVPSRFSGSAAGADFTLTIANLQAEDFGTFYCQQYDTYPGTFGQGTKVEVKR ; neutralization IC50 = 2.99 µg/mL
